Assay: antivirals protecting cells from dengue CPE – CPE readout, HTS (AID 540333)
Details: Dengue virus CPE inhibition in host cells, at 20 µM
Screen size: about 10,000 compounds; about 320 (3.2%) were called active. Rule as the data show it: active = CPE inhibition mostly above about 9.1% (no sharp cut-off); inactive = mostly below about 7.2%. This is one part of a sample in which actives are shown more often than they occur.
Respond using exactly one of the listed classes: Y for active, N for inactive

Query :: Dear all, I need the recorded test outcome for O=S(=O)(c1ccc(Cl)cc1)N1CCN(C(=S)Nc2ccc(F)c(Cl)c2)CC1 , thank you.
Result :: Y

Query :: Dear all, I need the recorded test outcome for Cc1c(Cl)cccc1NCC(=O)Nc1ccc(Cl)cc1F , thank you.
Result :: N

Query :: Dear all, I need the recorded test outcome for O=C(C[n+]1cc(-c2ccc(F)cc2)n2c1CCC2)Nc1nc(-c2ccccc2)cs1 , thank you.
Result :: N

The reported numbers originate from PubChem BioAssay AID540333.
